Data origin: patent US7718673B2

Assayed target: RGD-affinity purified GPIIb/IIIa (Homo sapiens, UniProt P05106+P08514)
Sequence (P08514 32-887 limits assumed): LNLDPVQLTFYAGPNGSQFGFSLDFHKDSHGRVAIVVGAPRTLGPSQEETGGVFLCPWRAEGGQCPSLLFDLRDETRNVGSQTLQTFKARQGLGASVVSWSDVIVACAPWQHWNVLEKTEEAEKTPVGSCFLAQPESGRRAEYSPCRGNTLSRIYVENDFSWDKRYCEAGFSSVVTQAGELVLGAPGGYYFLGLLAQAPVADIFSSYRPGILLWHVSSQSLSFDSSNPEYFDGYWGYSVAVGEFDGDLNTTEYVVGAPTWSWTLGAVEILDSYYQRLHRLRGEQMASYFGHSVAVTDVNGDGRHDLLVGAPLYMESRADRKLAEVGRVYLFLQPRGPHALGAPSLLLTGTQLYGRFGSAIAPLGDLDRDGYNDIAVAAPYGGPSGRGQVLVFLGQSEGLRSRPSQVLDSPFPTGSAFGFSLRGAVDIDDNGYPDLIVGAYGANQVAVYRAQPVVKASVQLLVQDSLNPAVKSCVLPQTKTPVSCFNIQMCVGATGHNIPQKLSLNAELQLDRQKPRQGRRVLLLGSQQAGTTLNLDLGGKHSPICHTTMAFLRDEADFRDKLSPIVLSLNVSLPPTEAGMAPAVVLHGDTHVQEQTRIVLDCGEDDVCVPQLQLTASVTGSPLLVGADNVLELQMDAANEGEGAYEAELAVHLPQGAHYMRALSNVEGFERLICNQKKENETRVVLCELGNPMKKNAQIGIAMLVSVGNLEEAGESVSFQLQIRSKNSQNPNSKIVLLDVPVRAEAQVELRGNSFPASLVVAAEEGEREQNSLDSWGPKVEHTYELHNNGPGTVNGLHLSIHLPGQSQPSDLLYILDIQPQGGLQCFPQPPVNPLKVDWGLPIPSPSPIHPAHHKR
Sequence (P08514 891-1039 partner limits assumed): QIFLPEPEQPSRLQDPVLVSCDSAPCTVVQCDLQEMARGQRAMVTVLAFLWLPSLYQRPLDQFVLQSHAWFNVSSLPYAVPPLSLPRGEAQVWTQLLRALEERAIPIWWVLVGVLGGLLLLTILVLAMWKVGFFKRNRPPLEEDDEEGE
Sequence (P05106 27-788): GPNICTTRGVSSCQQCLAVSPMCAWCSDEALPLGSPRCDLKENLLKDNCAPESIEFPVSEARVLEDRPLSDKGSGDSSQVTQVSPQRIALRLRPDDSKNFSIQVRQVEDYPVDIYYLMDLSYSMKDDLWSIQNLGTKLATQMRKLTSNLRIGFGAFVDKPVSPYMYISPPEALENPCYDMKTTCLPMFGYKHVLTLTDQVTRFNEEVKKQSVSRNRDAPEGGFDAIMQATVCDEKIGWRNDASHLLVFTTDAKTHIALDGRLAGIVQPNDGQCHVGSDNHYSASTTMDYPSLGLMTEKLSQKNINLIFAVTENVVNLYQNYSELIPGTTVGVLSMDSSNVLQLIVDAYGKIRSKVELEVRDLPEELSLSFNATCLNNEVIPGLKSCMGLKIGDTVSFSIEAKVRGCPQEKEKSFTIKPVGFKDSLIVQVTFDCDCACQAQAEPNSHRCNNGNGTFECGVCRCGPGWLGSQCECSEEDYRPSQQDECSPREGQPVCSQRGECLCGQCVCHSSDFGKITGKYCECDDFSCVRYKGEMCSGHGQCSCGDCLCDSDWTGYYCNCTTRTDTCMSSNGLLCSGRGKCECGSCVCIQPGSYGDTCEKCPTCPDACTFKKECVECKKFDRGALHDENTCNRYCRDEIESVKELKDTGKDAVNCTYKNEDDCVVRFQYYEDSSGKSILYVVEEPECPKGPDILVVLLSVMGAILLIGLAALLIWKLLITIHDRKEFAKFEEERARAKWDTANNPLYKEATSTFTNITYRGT
Protocol description: In vitro solid phase purified GPIIb/IIIa binding assay (biotinylated fibrinogen)
Measurement context: fibrinogen binding to immobilized GPIIb/IIIa; read-out: IIb/IIIa IC50
Recorded endpoint: IC50 (nM)

Field: example entries. Status: answers known.
COc1cc(OC)cc(C(CC(=O)O)NC(=O)C2CCN(C(=O)CCCNC3=NCCN3)CC2)c1 (stereo not shown) = 2200
O=C(O)CC(NC(=O)C1CCN(C(=O)CCCNC2=NCCN2)CC1)c1cccc(C(F)(F)F)c1 (stereo not shown) = 13000

I. O=C(O)C[C@H](NC(=O)C1CCN(C(=O)OCCNC2=NCCN2)CC1)c1cnc2ccccc2c1
II. COC(=O)[C@H](CNC(=O)C1CCN(C(=O)CCCNC2=NCCN2)CC1)NC(=O)OCc1ccccc1
### Prompt Among I and II , which shows a numerically higher IC50 result? Bench note: the answer is the label of the chosen record.
### Response II
(II: 140 nM, I: 36 nM)

---

Assayed target: Human αvβ3 (Homo sapiens, UniProt P05106+P06756)
Construct: purchased Chemicon International Inc., Temecula, Calif
Sequence (P06756 31-889 limits assumed): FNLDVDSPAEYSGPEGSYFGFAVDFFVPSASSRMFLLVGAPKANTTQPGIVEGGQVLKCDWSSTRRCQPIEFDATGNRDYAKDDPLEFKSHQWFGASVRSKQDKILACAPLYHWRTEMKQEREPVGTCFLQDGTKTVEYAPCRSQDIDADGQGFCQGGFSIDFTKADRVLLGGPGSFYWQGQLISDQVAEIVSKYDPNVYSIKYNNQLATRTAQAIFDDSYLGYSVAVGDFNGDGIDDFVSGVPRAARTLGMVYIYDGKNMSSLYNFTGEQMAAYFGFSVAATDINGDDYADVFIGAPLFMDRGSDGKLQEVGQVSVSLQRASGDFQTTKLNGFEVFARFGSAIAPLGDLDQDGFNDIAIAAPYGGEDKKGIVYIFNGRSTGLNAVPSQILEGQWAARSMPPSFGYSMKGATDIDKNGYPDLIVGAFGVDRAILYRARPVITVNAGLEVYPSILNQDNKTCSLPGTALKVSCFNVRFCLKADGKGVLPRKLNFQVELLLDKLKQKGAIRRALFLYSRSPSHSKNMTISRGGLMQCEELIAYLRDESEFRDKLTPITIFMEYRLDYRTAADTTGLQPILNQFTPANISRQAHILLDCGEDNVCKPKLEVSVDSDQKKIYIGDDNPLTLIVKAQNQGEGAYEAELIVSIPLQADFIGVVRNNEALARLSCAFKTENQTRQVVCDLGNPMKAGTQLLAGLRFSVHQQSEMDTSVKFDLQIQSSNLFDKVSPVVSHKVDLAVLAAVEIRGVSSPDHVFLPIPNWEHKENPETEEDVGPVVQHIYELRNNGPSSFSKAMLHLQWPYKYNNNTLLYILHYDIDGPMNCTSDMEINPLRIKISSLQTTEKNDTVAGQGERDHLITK
Sequence (P06756 891-1048 partner limits assumed): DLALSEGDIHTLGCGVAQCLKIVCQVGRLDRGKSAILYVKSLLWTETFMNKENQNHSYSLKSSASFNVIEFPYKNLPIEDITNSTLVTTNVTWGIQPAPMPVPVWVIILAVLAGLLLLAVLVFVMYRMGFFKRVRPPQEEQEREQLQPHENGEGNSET
Sequence (P05106 27-788): as the sequence (P05106 27-788) above
Protocol description: In vitro solid phase purified αvβ3 binding assay (vitronectin/αvβ3)
Measurement context: vitronectin binding to immobilized αvβ3; read-out: αvβ3 IC50
Recorded endpoint: IC50 (nM)

a. O=C(O)CC(NC(=O)C1CCN(C(=O)OCCNC2=NCCN2)CC1)c1ccc2c(c1)OCO2 (stereo not drawn)
b. O=C(N[C@H](CNC(=O)C1CCN(C(=O)CCCNC2=NCCS2)CC1)C(=O)O)OCc1ccccc1
### Prompt Among a and b , which shows a numerically higher IC50 result? Bench note: the answer is the label of the chosen record.
### Response b

---

Assayed target: RGD-affinity purified GPIIb/IIIa (Homo sapiens, UniProt P05106+P08514)
Protocol description: In vitro solid phase purified GPIIb/IIIa binding assay (biotinylated fibrinogen)
Measurement context: fibrinogen binding to immobilized GPIIb/IIIa; read-out: IIb/IIIa IC50
pIC50: −log10 of the molar value.
Recorded endpoint: pIC50

Field: example entries. Status: answers known.
O=C(N[C@@H](CNC(=O)C1CCN(C(=O)OCCNC2=NCCN2)CC1)C(=O)O)OCc1ccccc1 = 5.82
C=CC(CCC(=O)N1CCC(C(=O)NC[C@H](NC(=O)OCc2ccccc2)C(=O)O)CC1)NC1=NCCN1 (some centres unmarked) = 7.92
O=C(O)C[C@H](NC(=O)C1CCN(C(=O)OCCNC2=NCCN2)CC1)c1cccnc1 = 5.96
Cc1cccc(C(CC(=O)O)NC(=O)C2CCN(C(=O)CCCNC3=NCCN3)CC2)c1 (centres unmarked) = 4.42
C[C@H](CC(=O)O)NC(=O)C1CCN(C(=O)CCCNC2=NCCN2)CC1 = 5.77

P. O=C(O)C[C@H](NC(=O)C1CCN(C(=O)CCCNC2=NCCN2)CC1)c1cccnc1
Q. O=C(O)CC(NC(=O)C1CCN(C(=O)CCCNC2=NCCN2)CC1)c1ccc2c(c1)OCO2 (centres unmarked)
R. CCN(CC)C(=O)COC(=O)CC(NC(=O)C1CCN(C(=O)CCCNC2=NCCN2C(=O)OC(C)(C)C)CC1)c1cnc2ccccc2c1 (centres unmarked)
### Prompt List by increasing pIC50. Write out the labels following the order that was asked for.
### Response R, P, Q

---

Assayed target: RGD-affinity purified GPIIb/IIIa (Homo sapiens, UniProt P05106+P08514)
Protocol description: In vitro solid phase purified GPIIb/IIIa binding assay (biotinylated fibrinogen)
Measurement context: fibrinogen binding to immobilized GPIIb/IIIa; read-out: IIb/IIIa IC50
Recorded endpoint: IC50 (nM)

I. O=C(O)CC(NC(=O)C1CCN(C(=O)CCCNc2ccccn2)CC1)c1ccc2c(c1)OCO2 (stereo not shown) [Compound 62]
II. O=C(O)CC(NC(=O)C1CCN(C(=O)CCc2nc3ccccc3[nH]2)CC1)c1ccc2c(c1)OCCO2 (stereo not shown) [Compound 13]
### Prompt Among I and II , which shows a numerically higher IC50 result? Bench note: the answer is the label of the chosen record.
### Response II
(II: 29000 nM, I: 380 nM)

A. COC(=O)C[C@H](NC(=O)C1CCN(C(=O)CCCNC2=NCCN2)CC1)c1cnc2ccccc2c1 [Compound 44]
B. CC(CNC1=NCCN1)C(=O)N1CCC(C(=O)NC[C@H](NC(=O)OCc2ccccc2)C(=O)O)CC1 (stereo partly shown) [Compound 16]
### Prompt Among A and B , which shows a numerically higher IC50 result? Bench note: the answer is the label of the chosen record.
### Response A

---

Assayed target: human purified αvβ5 (Homo sapiens, UniProt P06756+P18084)
Sequence (P06756 31-889 limits assumed): as the sequence (P06756 31-889 limits assumed) above
Sequence (P06756 891-1048 partner limits assumed): as the sequence (P06756 891-1048 partner limits assumed) above
Sequence (P18084 24-799): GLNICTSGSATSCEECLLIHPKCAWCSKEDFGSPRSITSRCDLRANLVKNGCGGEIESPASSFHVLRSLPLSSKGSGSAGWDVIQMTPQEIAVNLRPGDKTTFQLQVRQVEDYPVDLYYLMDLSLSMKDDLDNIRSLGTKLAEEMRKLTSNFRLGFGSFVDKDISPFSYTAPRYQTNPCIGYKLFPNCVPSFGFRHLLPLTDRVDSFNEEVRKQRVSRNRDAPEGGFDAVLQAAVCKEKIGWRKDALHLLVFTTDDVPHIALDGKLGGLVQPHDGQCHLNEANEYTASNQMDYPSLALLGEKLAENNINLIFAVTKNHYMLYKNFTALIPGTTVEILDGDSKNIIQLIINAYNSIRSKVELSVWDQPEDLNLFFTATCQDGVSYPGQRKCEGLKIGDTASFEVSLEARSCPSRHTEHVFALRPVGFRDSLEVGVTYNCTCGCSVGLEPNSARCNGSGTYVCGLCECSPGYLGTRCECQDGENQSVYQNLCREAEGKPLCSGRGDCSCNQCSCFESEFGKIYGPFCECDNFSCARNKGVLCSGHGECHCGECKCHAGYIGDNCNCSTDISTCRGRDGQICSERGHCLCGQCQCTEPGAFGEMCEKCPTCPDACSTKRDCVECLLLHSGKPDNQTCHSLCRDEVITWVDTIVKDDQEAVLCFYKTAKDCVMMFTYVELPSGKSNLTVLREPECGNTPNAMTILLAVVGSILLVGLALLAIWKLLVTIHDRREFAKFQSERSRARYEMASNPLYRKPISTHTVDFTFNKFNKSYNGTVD
Protocol description: In vitro solid phase purified αvβ5 binding assay (vitronectin/αvβ5)
Measurement context: vitronectin binding to immobilized αvβ5
pIC50: −log10 of the molar value.
Recorded endpoint: pIC50

Field: example entries. Status: answers known.
O=C(N[C@@H](CNC(=O)C1CCN(C(=O)CCONC2=NCCN2)CC1)C(=O)O)OCc1ccccc1 [Compound 60] = 7.07
CC(CNC1=NCCN1)C(=O)N1CCC(C(=O)N[C@@H](CC(=O)O)c2cccnc2)CC1 (some centres unmarked) [Compound 52] = 6.12
O=C(O)C[C@H](NC(=O)C1CCN(C(=O)CCCNC2=NCCN2)CC1)c1cnc2ccccc2c1 [Compound 1] = 7.60
O=C(N[C@@H](CNC(=O)C1CCN(C(=O)CCCNC2=NCCN2)CC1)C(=O)O)OCc1ccccc1 [Compound 2] = 7.68
N=C(N)NOCCC(=O)N1CCC(C(=O)NC[C@H](NC(=O)OCc2ccccc2)C(=O)O)CC1 [Compound 58] = 7.15

1. COC(=O)C[C@H](NC(=O)C1CCN(C(=O)CCCNC2=NCCN2)CC1)c1cnc2ccccc2c1 [Compound 44]
2. C=CC(CCC(=O)N1CCC(C(=O)NC[C@H](NC(=O)OCc2ccccc2)C(=O)O)CC1)NC1=NCCN1 (some centres unmarked) [Compound 49]
3. CC(CNC1=NCCN1)C(=O)N1CCC(C(=O)NC[C@H](NC(=O)OCc2ccccc2)C(=O)O)CC1 (some centres unmarked) [Compound 16]
### Prompt List by increasing pIC50. Write out the labels following the order that was asked for.
### Response 1, 2, 3

---

Assayed target: RGD-affinity purified GPIIb/IIIa (Homo sapiens, UniProt P05106+P08514)
Protocol description: In vitro solid phase purified GPIIb/IIIa binding assay (biotinylated fibrinogen)
Measurement context: fibrinogen binding to immobilized GPIIb/IIIa; read-out: IIb/IIIa IC50
Recorded endpoint: IC50 (nM)

O=C(N[C@H](CNC(=O)C1CCN(C(=O)CCCNC2=NCCS2)CC1)C(=O)O)OCc1ccccc1 = 130

P. O=C(O)C[C@H](NC(=O)C1CCN(C(=O)CC2(CNC3=NCCN3)CCCCC2)CC1)c1ccc(Cl)nc1
Q. O=C(N[C@@H](CNC(=O)C1CCN(C(=O)CCc2nc3ccccc3[nH]2)CC1)C(=O)O)OCc1ccccc1
R. Cc1cccnc1NCCCC(=O)N1CCC(C(=O)NC[C@H](NC(=O)OCc2ccccc2)C(=O)O)CC1
### Prompt hey, can you rank those compounds up there by IC50? biggest number first please Write out the labels following the order that was asked for.
### Response Q, R, P

---

Assayed target: Human αvβ3 (Homo sapiens, UniProt P05106+P06756)
Construct: purchased Chemicon International Inc., Temecula, Calif
Protocol description: In vitro solid phase purified αvβ3 binding assay (vitronectin/αvβ3)
Measurement context: vitronectin binding to immobilized αvβ3; read-out: αvβ3 IC50
Recorded endpoint: IC50

Field: example entries. Status: answers known.
O=C(O)CC(NC(=O)C1CCN(C(=O)CCCNC2=NCCN2)CC1)c1ccc2c(c1)CCO2 (stereo not drawn) [Compound 23] = > 500 nM
O=C(O)CC(NC(=O)C1CCN(C(=O)OCCNC2=NCCN2)CC1)c1cc(F)cc(F)c1 (stereo not drawn) [Compound 35] = 140 nM

Consider the record given below.
### Prompt Please tell me: IC50 of O=C(O)CC(NC(=O)C1CCN(C(=O)CCCNC2=NCCN2)CC1)c1cccc2ccccc12 (stereo not drawn) [Compound 36] , system Human αvβ3 (Homo sapiens, UniProt P05106+P06756)?
### Response > 300 nM

---

Assayed target: Human αvβ3 (Homo sapiens, UniProt P05106+P06756)
Construct: purchased Chemicon International Inc., Temecula, Calif
Protocol description: In vitro solid phase purified αvβ3 binding assay (vitronectin/αvβ3)
Measurement context: vitronectin binding to immobilized αvβ3; read-out: αvβ3 IC50
pIC50: −log10 of the molar value.
Recorded endpoint: pIC50

Field: example entries. Status: answers known.
O=C(O)CC(NC(=O)C1CCN(C(=O)OCCNC2=NCCN2)CC1)c1cccnc1 (stereo not shown) = 7.54
O=C(O)C[C@H](NC(=O)C1CCN(C(=O)CCCNc2ccccn2)CC1)c1cnc2ccccc2c1 = 8.40
O=C(O)C[C@H](NC(=O)C1CCN(C(=O)OCCNC2=NCCN2)CC1)c1cccnc1 = 7.92
COC(=O)[C@H](CNC(=O)C1CCN(C(=O)CCCNC2=NCCN2)CC1)NC(=O)OCc1ccccc1 = 6.77
CCN(CC)C(=O)COC(=O)CC(NC(=O)C1CCN(C(=O)CCCNC2=NCCN2)CC1)c1cnc2ccccc2c1 (stereo not shown) = 6.82

A. CCN(CC)C(=O)COC(=O)CC(NC(=O)C1CCN(C(=O)CCCNC2=NCCN2C(=O)OC(C)(C)C)CC1)c1cnc2ccccc2c1 (stereo not shown)
B. N=C(N)NOCCC(=O)N1CCC(C(=O)NC[C@H](NC(=O)OCc2ccccc2)C(=O)O)CC1
### Prompt // compare: A vs B , metric pIC50, want the smaller Bench note: the answer is the label of the chosen record.
### Response A
(A: 5.43, B: 7.40)

P. O=C(O)C[C@H](NC(=O)C1CCN(C(=O)CC2(CNC3=NCCN3)CCCCC2)CC1)c1ccc(Cl)nc1
Q. O=C(N[C@@H](CNC(=O)C1CCN(C(=O)C2CCN(C3=NCCN3)CC2)CC1)C(=O)O)OCc1ccccc1
### Prompt // compare: P vs Q , metric pIC50, want the smaller Bench note: the answer is the label of the chosen record.
### Response Q
